Ref: patent US20230183237A1

# reported log10(IC50); entries follow
System Tested: hM5 (Homo sapiens, UniProt P08912)
Construct: expressed in transfected cells
Test Summary: Calcium mobilization concentration-response (IC50 vs EC80 acetylcholine), CHO hM5
Type: cell-based
Setup Conditions: CELL LINE hM5; vs EC80 acetylcholine; read-out: IC50
Hey, these are logged values: log10 of IC50, nM being the unit before logging.

Sample records with log10(IC50):
Smiles Representation	log10(IC50)
CCc1cc2ncnn2cc1C1CCN(S(=O)(=O)c2cnn(C)c2CC#N)CC1	2.80
Cn1cc(S(=O)(=O)N2CCC(c3cn4ncnc4cc3Cl)CC2)nn1	1.40
Cc1nnc(S(=O)(=O)N2CCC(c3cn4ncnc4cc3C(F)F)CC2)s1	2.53
Cc1cc2ncnn2cc1C1CCN(S(=O)(=O)c2cnc3sccn23)CC1	1.15

From here, focus on the item given below.
Exercise: Report log10(IC50) for "O=S(=O)(c1cnc(Cl)s1)N1CCC(c2cn3ncnc3cc2C(F)(F)F)CC1" tested on hM5 (Homo sapiens, UniProt P08912).
Solution: 3.20

* * *

System Tested: hM5 (Homo sapiens)
Construct: expressed in transfected cells
Test Summary: Calcium mobilization concentration-response (IC50 vs EC80 acetylcholine), CHO hM5
Assay type: cell-based
Setup Conditions: CELL LINE hM5; calcium mobilization, EC80 acetylcholine addition; read-out: IC50
Endpoint Label: IC50 (µM)
Answer format: numeric, µM implied, no suffix.

Molecule	Endpoint Label	Units Of Measure	Obs Value
Cc1c(S(=O)(=O)N2CCC(c3cn4ncnc4cc3C3CC3)CC2)cnn1C [Compound 345]	IC50	µM	0.134
O=S(=O)(c1c(Cl)nc2sccn12)N1CCC(c2cn3ncnc3cc2F)CC1 [Compound 328]	IC50	µM	0.327
Cc1ncc(S(=O)(=O)N2CC=C(c3cn4ncnc4cc3Cl)CC2)n1C [Compound 224]	IC50	µM	0.012
Cc1cc2ncnn2cc1C1CCN(S(=O)(=O)c2cc3c(cc2C)OCC3C)CC1 (centres unmarked) [Compound 100]	IC50	µM	0.039
Cc1nc2cc(C)c(C3CCN(S(=O)(=O)c4cnn(C)c4C)CC3)cn2n1 [Compound 200]	IC50	µM	0.899
Cn1ncc(S(=O)(=O)N2CCC(c3cn4ncnc4cc3Cl)CC2)c1C(F)F [Compound 295]	IC50	µM	0.019

Exercise: I have this molecule here, Cc1nn(C)c(Cl)c1S(=O)(=O)N1CCC(c2cn3ncnc3cc2F)CC1 [Compound 228] , and I need its recorded IC50.
Solution: 0.125

Exercise: Query: IC50; subject: Cc1nn(C)c(Cl)c1S(=O)(=O)N1CCC(c2cn3ncnc3c(F)c2C)CC1 [Compound 318]
Solution: 0.015

* * *

System Tested: hM5 (Homo sapiens)
Construct: expressed in transfected cells
Test Summary: Calcium mobilization concentration-response (IC50 vs EC80 acetylcholine), CHO hM5
Type: cell-based
Setup Conditions: CELL LINE hM5; calcium mobilization, EC80 acetylcholine addition; read-out: IC50
Parameter: IC50. Scope: all listed entries.

Compound	IC50
O=S(=O)(c1cnc2n1CCC2)N1CC=C(c2cc3ncnn3cc2Cl)CC1 [Compound 206]	> 10 µM
Cc1cc2ncnn2cc1C1CCN(S(=O)(=O)c2ccc3c(c2)C(C)(C)CO3)CC1 [Compound 74]	> 10 µM
Cc1c(S(=O)(=O)N2CC=C(c3cn4ncnc4c(F)c3F)CC2)cnn1C [Compound 379]	0.243 µM

Now for the compound whose IC50 we want.
Exercise: Provide the documented IC50 with hM5 (Homo sapiens) as the system for Cc1nn(C(F)F)cc1S(=O)(=O)N1CCC(c2cn3ncnc3cc2C(F)(F)F)CC1 [Compound 276]
Solution: > 10 µM

* * *

System Tested: hM5 (Homo sapiens, UniProt P08912)
Construct: expressed in transfected cells
Sequence (P08912 1-532): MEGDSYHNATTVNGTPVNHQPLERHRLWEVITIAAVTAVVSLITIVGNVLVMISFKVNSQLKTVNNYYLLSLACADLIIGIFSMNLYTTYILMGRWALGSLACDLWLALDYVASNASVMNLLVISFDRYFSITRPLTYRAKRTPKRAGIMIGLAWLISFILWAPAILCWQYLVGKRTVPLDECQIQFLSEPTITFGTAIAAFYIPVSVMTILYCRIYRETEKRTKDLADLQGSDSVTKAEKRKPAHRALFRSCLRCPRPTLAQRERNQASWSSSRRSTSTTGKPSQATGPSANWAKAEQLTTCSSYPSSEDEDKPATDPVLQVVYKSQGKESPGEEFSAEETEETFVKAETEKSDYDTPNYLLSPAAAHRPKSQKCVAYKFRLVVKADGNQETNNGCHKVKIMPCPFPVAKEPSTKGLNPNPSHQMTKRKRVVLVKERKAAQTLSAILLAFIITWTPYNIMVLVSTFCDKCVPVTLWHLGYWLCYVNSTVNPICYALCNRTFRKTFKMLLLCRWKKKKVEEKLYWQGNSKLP
Test Summary: Calcium mobilization concentration-response (IC50 vs EC80 acetylcholine), CHO hM5
Type: cell-based
Setup Conditions: CELL LINE hM5; vs EC80 acetylcholine; read-out: IC50
pIC50: −log10 of the molar value.
Returns t if the recorded pIC50 is greater than or equal to 7, and f otherwise.

// known answers, use as guide
Molecule	Class Assignment
[2H]C([2H])([2H])OCc1c(S(=O)(=O)N2CCC(c3cn4ncnc4cc3F)CC2)cnn1C	f
Cc1cc(C(F)(F)F)ncc1C1CCN(S(=O)(=O)c2ccc3c(c2)CCO3)CC1	f
O=S(=O)(c1cnc2sccn12)N1CCC(c2cn3ncnc3cc2F)CC1	f
Cn1ncc(S(=O)(=O)N2CCC(c3cn4ncnc4cc3F)CC2)c1CN	f
Cc1cc(S(=O)(=O)N2CCC(c3cn4ncnc4cc3C(F)(F)F)CC2)sn1	t

Exercise: pIC50 >= 7 for "Cc1cc2ccnn2cc1C1CCN(S(=O)(=O)c2cnn(C)c2CC#N)CC1" ?
Solution: f

Exercise: Is it the case that "Cn1ncc(S(=O)(=O)N2CCC(c3cn4ncnc4cc3Cl)CC2)c1C#N" has pIC50 reaching or exceeding 7?
Solution: t

Exercise: Does "Cc1ncc(S(=O)(=O)N2CCC(c3nn4ncnc4cc3C)CC2)o1" have a reported pIC50 of at least 7?
Solution: f

Exercise: Check the entry "Cn1cnnc1S(=O)(=O)N1CCC(c2cn3ncnc3cc2C(F)F)CC1" : does pIC50 equal or exceed 7?
Solution: f

Exercise: I'd appreciate it if you could say whether "Cc1cc2ncccc2cc1C1CCN(S(=O)(=O)c2cnn3c2OCCC3)CC1" has pIC50 at least equal to 7.
Solution: t

Exercise: Is pIC50 at least 7? Consider "[2H]C1([2H])CC(c2cn3ncnc3c(F)c2C)CC([2H])([2H])N1S(=O)(=O)c1cnc(C)o1"
Solution: f

Exercise: Is pIC50 at least 7? Consider "Cc1ncc(S(=O)(=O)N2CCC(c3cn4ncnc4cc3F)CC2)o1"
Solution: f

* * *

Parameter: pIC50. Scope: all listed entries.
System Tested: hM5 (Homo sapiens, UniProt P08912)
Construct: expressed in transfected cells
Test Summary: Calcium mobilization concentration-response (IC50 vs EC80 acetylcholine), CHO hM5
Type: cell-based
Setup Conditions: CELL LINE hM5; vs EC80 acetylcholine; read-out: IC50
By convention, pIC50 is the negative base-10 log of a molar concentration.

Exercise: # input compound: "[2H]c1nc2cc(Cl)c(C3=CCN(S(=O)(=O)c4cnc(C)s4)CC3)cn2n1" ; wanted: its pIC50
Solution: 7.01

Exercise: What does the record list as pIC50 for "Cc1cc(S(=O)(=O)N2CCC(c3cnc(N(C)C)cc3C)CC2)sn1" ?
Solution: 7.42

Exercise: # get_value(readout='pIC50', item= "Cc1cc(S(=O)(=O)N2CCC(c3cn4ncnc4cc3Cl)CC2)sn1" )
Solution: 8.22

Exercise: Look at this compound and give its reported pIC50. "Cc1cc2nccn2nc1N1CCN(S(=O)(=O)c2cnc(C)n2C)CC1"
Solution: 6.95

Exercise: Entry "Cn1cc(S(=O)(=O)N2CCC(c3cn4ncnc4cc3C(F)(F)F)CC2)nn1" : reported pIC50 = ?
Solution: 6.63

* * *

System Tested: hM5 (Homo sapiens, UniProt P08912)
Construct: expressed in transfected cells
Test Summary: Calcium mobilization concentration-response (IC50 vs EC80 acetylcholine), CHO hM5
Assay type: cell-based
Setup Conditions: CELL LINE hM5; vs EC80 acetylcholine; read-out: IC50
Could you please mark T for values of IC50 below 200 nM and F for values at or above it?

Worked examples follow.
Compound	Class Assignment
[2H]C1([2H])CC(c2cn3ncnc3cc2C(F)F)CC([2H])([2H])N1S(=O)(=O)c1cnc(C)o1	F
CCc1cc2ncnn2cc1C1CCN(S(=O)(=O)c2cnn3ccccc23)CC1	T
Cc1cc(S(=O)(=O)N2CCC(c3cn4ncnc4cc3C)CC2)sn1	T
Cc1ncc(S(=O)(=O)N2CCC(c3cn4ccnc4cc3C)CC2)s1	F
Cc1cc2ncccc2cc1C1CCN(S(=O)(=O)c2cnn3c2CCC3)CC1	T

Exercise: I'd appreciate it if you could check whether "Cc1ncc(S(=O)(=O)N2CCC(c3c4c(nn3C)CCCC4)CC2)s1" has IC50 smaller than 200 nM.
Solution: F

Exercise: Consider the compound "Cc1cc(N(C)C)ncc1C1CCN(S(=O)(=O)c2cnn(C)c2C)CC1" . Is its IC50 strictly less than 200 nM?
Solution: T

Exercise: Input COc1c(S(=O)(=O)N2CCC(c3cn4ncnc4cc3Cl)CC2)c(I)nn1C (single isomer, unassigned) ; condition: IC50 strictly below 200 nM. Does it hold?
Solution: T
